Target: UDP-3-O-acyl-N-acetylglucosamine deacetylase (Pseudomonas aeruginosa (strain ATCC 15692 / PAO1 / 1C / PRS 101 / LMG12228))
Sequence (P47205 whole entry): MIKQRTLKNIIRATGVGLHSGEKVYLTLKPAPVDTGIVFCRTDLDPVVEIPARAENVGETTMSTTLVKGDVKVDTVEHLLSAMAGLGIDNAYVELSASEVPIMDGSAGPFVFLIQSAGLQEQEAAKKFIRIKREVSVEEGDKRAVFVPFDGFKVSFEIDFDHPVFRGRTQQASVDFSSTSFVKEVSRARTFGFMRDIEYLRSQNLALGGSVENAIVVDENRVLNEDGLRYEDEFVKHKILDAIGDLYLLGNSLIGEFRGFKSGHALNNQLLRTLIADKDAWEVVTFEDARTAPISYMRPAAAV
Test: Binding affinity to Pseudomonas aeruginosa LpxC assessed as inhibition constant
pKi: −log10 of the molar value.
Readout: pKi

>>> recorded_number("C[C@@](O)(C(F)F)[C@H](NC(=O)c1ccc(C#CC#CC2CC2)cc1)C(=O)NO")
11.05
